molecular target: T1, human immunoglobulin E (hIgE) (human, UniProt P01854-1 1-428); test: SPR competition
T1 construct: also called human IgE; Native IgE (Abcam)
T1 sequence (P01854 whole entry): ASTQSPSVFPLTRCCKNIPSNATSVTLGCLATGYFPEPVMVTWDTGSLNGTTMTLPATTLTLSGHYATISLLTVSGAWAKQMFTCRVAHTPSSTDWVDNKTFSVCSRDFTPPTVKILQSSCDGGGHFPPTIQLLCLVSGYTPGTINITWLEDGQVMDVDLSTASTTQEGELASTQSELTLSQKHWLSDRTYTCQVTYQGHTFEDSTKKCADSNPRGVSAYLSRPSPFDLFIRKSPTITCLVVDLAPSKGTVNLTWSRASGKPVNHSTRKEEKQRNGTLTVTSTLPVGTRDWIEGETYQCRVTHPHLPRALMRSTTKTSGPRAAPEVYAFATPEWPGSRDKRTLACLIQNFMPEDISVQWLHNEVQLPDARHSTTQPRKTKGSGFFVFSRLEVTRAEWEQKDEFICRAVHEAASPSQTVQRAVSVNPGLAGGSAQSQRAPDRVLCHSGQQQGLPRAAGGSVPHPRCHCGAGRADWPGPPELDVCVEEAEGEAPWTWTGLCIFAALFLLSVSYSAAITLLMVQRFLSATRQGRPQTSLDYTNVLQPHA
valueKind: Ratio pH 6/7.4 (IC50)

Below, 2 binders whose answers are already recorded.
{"binder": "18B9 human IgG1 mAb (antibody, V domains shown, human IgG1 and human light chain constant domains; also called clone 18B9) VH: QVQLVESGGGLVQPGGSLRLSCAASGFTFSSYVMSWVRQAPGKGLEWVSSIYSDGSHTYYADSVKGRFTISRDNAKNTLYLQMNSLKSEDTAVYYCAKNLEHYSGSYYYTDPRYDYWGQGTQVTVSS VL: SSALTQPSALSVTLGQTAKITCQGGSLGSSYVHWYQQKPGQAPVLVIYDGDSRPSGIPERFSGSSSGGTATLTISGAQAEDEDDYYCQSADSSGNAVFGGGTHLTVL", "measuredResult": 1.4}
{"binder": "20D5 human IgG1 mAb (antibody, V domains shown, also called clone 20D5) VH: QLQLVESGGGLVQPGGSLRLSCAASGFAFSSYVMTWVRQAPGKGLEWVSSIYSDGSHTYYADSVKDRFTISRDNAKNTLFLQMNSLKSEDTAVYYCAKDAEYYSGSYYYTDTKYDYWGQGTQVTVSS VL: SSALTQPSALSVTLGQTAKITCQGGSLGSSYAHWYQQKPGQAPVLVIYADDSRPSGIPERFSGSSSGGTATLTISGAQAEDEGDYYCQSADSSGNAVFGGGTHLTVL", "measuredResult": 1.1}

Turning now to a further record.
Fill blank: measured Ratio pH 6/7.4 (IC50) of the binder 3A1 human IgG1 mAb (antibody, V domains shown, human IgG1 and human light chain constant domains; also called clone 3A1) VH: EVQVQESGGGLVQPGGSLRLSCAASGFTFDNYAMSWVRQAPGKGLEWVSAISWNGGSTYYAESMKGRFTISRDNAKNMLYLQMNSLKSEDTAVYYCAKDLLVAARGGMDYWGKGTLVTVSS VL: SSALTQPSAVSVSLEQTARITCQGGTLGSYGAHWYQQKPGQAPVLLIYGDNSRPSGIPERFSGTRSGGTATLTISGAQAEDEADYYCQSFDYSGNAVFGGGTHLTVL is ____.
1.5
